# experimental.details: logp (HCOOH) determination
# Assay type: physicochemical
# measurement.parameters: HCOOH (formic acid)
Reported chromatographic logP values for a set of molecules

Some solved cases for reference:
>  <molecule>
Cc1nc(C)nc(N[C@@H]2CCCc3ccccc32)n1

>  <chromatographic logP>
1.35

$$$$
>  <molecule>
COCc1nc(C)nc(N[C@H]2c3cc(C)ccc3C[C@@H]2C)n1

>  <chromatographic logP>
2.16

$$$$
>  <molecule>
Cc1nc(C)nc(NC2CCc3c(C)cccc32)n1 (stereo not shown)

>  <chromatographic logP>
1.36

$$$$

Q) # query: chromatographic logP of entry Cc1ccc2c(c1)[C@H](Nc1nc(C)nc(C(Cl)(Cl)Cl)n1)[C@@H](C)C2
A) 4.85
